- Tested System: α1G T-type calcium channel (Homo sapiens)
- Construct: host or cells: HEK293
- Sequence (O43497 whole entry): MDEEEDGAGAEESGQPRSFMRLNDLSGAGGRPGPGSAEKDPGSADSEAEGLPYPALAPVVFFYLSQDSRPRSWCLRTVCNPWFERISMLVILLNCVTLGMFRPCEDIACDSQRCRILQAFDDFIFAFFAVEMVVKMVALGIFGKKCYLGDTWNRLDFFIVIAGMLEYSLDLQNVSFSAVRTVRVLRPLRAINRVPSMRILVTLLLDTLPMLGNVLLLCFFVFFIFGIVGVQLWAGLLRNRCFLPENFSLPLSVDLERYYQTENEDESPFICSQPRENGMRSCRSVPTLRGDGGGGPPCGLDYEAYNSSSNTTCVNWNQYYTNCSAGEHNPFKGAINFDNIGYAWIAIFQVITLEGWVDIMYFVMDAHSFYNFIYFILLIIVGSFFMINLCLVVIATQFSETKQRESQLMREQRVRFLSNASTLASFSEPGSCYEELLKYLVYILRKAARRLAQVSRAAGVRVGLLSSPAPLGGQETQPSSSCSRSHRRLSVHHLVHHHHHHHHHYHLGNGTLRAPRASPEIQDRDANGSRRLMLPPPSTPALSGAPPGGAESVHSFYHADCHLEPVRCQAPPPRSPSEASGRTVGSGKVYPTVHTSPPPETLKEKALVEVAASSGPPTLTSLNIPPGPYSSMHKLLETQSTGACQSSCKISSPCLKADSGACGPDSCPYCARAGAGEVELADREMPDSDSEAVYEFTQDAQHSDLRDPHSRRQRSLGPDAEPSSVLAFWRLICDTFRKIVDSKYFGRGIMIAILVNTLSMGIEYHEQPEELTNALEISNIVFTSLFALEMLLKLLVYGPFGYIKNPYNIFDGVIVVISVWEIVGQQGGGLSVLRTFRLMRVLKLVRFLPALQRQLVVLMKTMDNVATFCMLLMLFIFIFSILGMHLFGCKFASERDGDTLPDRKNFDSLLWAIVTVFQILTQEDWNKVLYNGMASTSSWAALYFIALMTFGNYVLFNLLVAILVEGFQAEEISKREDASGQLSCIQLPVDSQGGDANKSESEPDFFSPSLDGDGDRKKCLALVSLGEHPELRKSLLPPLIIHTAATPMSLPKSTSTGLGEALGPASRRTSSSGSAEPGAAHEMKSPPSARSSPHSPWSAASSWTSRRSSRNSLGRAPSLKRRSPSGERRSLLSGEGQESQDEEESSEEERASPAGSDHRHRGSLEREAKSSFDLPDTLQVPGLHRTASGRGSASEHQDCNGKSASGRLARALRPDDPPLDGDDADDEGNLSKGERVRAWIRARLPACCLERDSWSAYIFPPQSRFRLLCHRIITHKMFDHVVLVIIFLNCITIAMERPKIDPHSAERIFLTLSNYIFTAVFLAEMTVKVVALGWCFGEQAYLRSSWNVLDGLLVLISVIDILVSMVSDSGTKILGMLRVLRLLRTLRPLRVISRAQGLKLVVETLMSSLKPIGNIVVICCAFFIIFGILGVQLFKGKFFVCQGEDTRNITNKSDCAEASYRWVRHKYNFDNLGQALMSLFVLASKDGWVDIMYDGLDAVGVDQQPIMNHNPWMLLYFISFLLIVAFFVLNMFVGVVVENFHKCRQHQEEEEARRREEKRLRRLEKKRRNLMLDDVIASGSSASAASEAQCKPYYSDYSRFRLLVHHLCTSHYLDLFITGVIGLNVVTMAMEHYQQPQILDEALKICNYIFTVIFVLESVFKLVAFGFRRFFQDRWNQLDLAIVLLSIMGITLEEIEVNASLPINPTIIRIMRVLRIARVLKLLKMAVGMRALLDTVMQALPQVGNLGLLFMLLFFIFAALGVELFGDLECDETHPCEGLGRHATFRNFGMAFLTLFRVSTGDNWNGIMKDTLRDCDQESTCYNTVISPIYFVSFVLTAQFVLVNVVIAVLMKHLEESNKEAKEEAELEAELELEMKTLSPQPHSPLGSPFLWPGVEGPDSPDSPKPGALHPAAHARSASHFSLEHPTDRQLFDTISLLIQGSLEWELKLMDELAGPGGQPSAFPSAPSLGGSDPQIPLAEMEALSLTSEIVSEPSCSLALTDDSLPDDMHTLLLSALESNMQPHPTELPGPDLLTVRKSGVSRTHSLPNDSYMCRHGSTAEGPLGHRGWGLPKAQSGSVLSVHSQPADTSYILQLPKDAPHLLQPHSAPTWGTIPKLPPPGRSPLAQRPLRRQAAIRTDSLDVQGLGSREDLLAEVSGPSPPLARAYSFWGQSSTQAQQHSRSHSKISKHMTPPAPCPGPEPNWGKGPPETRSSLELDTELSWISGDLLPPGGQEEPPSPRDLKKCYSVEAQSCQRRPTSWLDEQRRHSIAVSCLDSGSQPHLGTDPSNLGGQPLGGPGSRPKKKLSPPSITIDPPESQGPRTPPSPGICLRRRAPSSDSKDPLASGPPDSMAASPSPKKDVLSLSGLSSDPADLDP
- Test Details: Assay for % inhibiting activity against T-type calcium channel using FDSS6000 (fluo-3 calcium imaging, KCl activation)
- Format: cell-based
- Run Parameters: HEK293, 10 μM; HEK293 cells stably expressing α1G T-type calcium channel and Kir2.1; compounds of the examples; read-out: FDSS (% inhibition)/10uM
Measured Attribute: inhibition at 10 µM (%)
One number for each entry, in %.

Recorded inhibition at 10 µM, per entry:
>>> result_number("Cl.O=C(CC1CSC(=NC2CCCCC2)N1Cc1ccccc1)Nc1ccc(Cl)cc1 (stereo not shown) [KHG24299, hydrochloride]")
45.6
>>> result_number("CC1SC(=NC2CCCCCC2)N(C)C1CC(=O)Nc1ccc(Br)cc1 (stereo not shown)")
55.8
>>> result_number("CN1C(=NC2CC2)SCC1CC(=O)Nc1ccc(Oc2ccccc2)cc1.Cl (stereo not shown) [KHG24141, hydrochloride]")
35.7
>>> result_number("CC1SC(=NC2CCCCCC2)N(C)C1CC(=O)Nc1cccc(F)c1.Cl (stereo not shown) [KHG24641, hydrochloride]")
63.5
>>> result_number("CCCCc1ccc(NC(=O)CC2CSC(=NC3CCCC3)N2C)cc1.Cl (stereo not shown) [KHG24116, hydrochloride]")
65.4

Would you be so kind as to report inhibition at 10 µM for each listed record?
1. Br.CN1C(=NC2CCCCCC2)SCC1C(=O)NCc1cccc(Br)c1 (stereo not shown) [KHG24668, hydrobromide]
2. CCCCN1C(=NC23CC4CC(CC(C4)C2)C3)SCC1CC(=O)Nc1ccc(Br)cc1.Cl (stereo not shown) [KHG24784, hydrochloride]
3. CC1SC(=NC2CCCCCC2)N(C)C1CC(=O)Nc1ccccc1.Cl (stereo not shown) [KHG24638, hydrochloride]
4. CCOC(=O)CCOc1cccc(NC(=O)CC2CSC(=NC3CCCCC3)N2C)c1.Cl (stereo not shown) [KHG24085, hydrochloride]
5. CC1SC(=NC2CCCCCC2)N(C)C1CC(=O)Nc1cc([N+](=O)[O-])ccc1F.Cl (stereo not shown) [KHG24645, hydrochloride]
6. CN1C(=NCCc2ccccc2)SCC1CC(=O)Nc1cc([N+](=O)[O-])ccc1F.Cl (stereo not shown) [KHG24232, hydrochloride]

50.7
36.6
40.8
52.6
48.4
33.7

Would you be so kind as to report inhibition at 10 µM for each listed record?
1. CN1C(=NC2CCCCC2)SCC1CC(=O)NCc1ccc(Cl)c(Cl)c1.Cl (stereo not shown) [KHG24088, hydrochloride]
2. CC(C)N1C(=NC23CC4CC(CC(C4)C2)C3)SCC1CC(=O)Nc1cc(Cl)ccc1F.Cl (stereo not shown) [KHG24835, hydrochloride]
3. CN1C(=NC2CCCC2)SCC1CC(=O)Nc1cc(Cl)ccc1F.Cl (stereo not shown) [KHG24103, hydrochloride]
4. CCCCc1ccc(NC(=O)CC2CSC(=NC3CCCCC3)N2CCC)cc1.Cl (stereo not shown) [KHG24291, hydrochloride]

1. 43.2
2. 55.2
3. 45
4. 63.2

Would you be so kind as to report inhibition at 10 µM for each listed record?
1. CC1SC(=NC2CCCCC2)N(C)C1CC(=O)Nc1cc([N+](=O)[O-])ccc1F (stereo not shown)
2. CC1SC(=NC2CCCCC2)N(C)C1CC(=O)Nc1ccc(C(F)(F)F)cc1.Cl (stereo not shown) [KHG24527, hydrochloride]
3. CC(C)c1ccc(NC(=O)CC2CSC(=NC3CCCCC3)N2Cc2ccccc2)cc1.Cl (stereo not shown) [KHG24303, hydrochloride]

1: 32.8; 2: 47; 3: 31.1
